# Method notes: Single rising dose plasma PK, OZ439 capsule, fasted healthy subjects
# Format: in vivo, human
# Conditions: both, human, plasma, oral, 200 mg
Experimental endpoint: Tmax (h)
Answers are plain numbers, in h.

Name the recorded Tmax for c1cc([C@H]2CC[C@]3(CC2)OO[C@]2(O3)C3CC4CC(C3)CC2C4)ccc1OCCN1CCOCC1 .
3.5

----------
# Method notes: Single rising dose plasma PK, OZ439 oral dispersion, fasted healthy subjects
# Assay type: in vivo, human
# Conditions: human, plasma, po, 1600 mg
Experimental endpoint: AUC(0-t) (ng·h/mL)
Answers are plain numbers, in ng·h/mL.

What value of AUC(0-t) has been reported for the following molecule? c1cc([C@H]2CC[C@]3(CC2)OO[C@]2(O3)C3CC4CC(C3)CC2C4)ccc1OCCN1CCOCC1
17500

----------
# Method notes: Multiple rising dose plasma PK, OZ439 oral dispersion once daily for 3 days
# Assay type: in vivo, human
# Conditions: human, plasma, po, 200 mg, AUC(0,24 h), 200 mg once a day for 3 days, oral dispersion, day 1; geometric mean (CV%)
Experimental endpoint: AUC(0-t) (ng·h/mL)
Give bare numbers, in ng·h/mL.

Report AUC(0-t) for c1cc([C@H]2CC[C@]3(CC2)OO[C@]2(O3)C3CC4CC(C3)CC2C4)ccc1OCCN1CCOCC1 [OZ439] please.
2640

----------
# Method notes: Single rising dose plasma PK, OZ439 capsule, fasted healthy subjects
# Format: in vivo, human
# Conditions: human, plasma, oral, 1200 mg
Experimental endpoint: AUC(0-inf) (ng·h/mL)
Numbers only, in ng·h/mL.

AUC(0-inf) lookup needed for c1cc([C@H]2CC[C@]3(CC2)OO[C@]2(O3)C3CC4CC(C3)CC2C4)ccc1OCCN1CCOCC1 , thanks.
9130

----------
# Method notes: Single rising dose plasma PK, OZ439 capsule, fasted healthy subjects
# Type: in vivo, human
# Conditions: both, human, plasma, oral, 50 mg
Experimental endpoint: Cmax (ng/mL)
Numbers only, in ng/mL.

What Cmax value was documented for this compound, c1cc([C@H]2CC[C@]3(CC2)OO[C@]2(O3)C3CC4CC(C3)CC2C4)ccc1OCCN1CCOCC1 ?
17.4

----------
# Method notes: Single rising dose plasma PK, OZ439 oral dispersion, fasted healthy subjects
# Type: in vivo, human
# Conditions: human, plasma, po, 400 mg
Experimental endpoint: AUC(0-t) (ng·h/mL)
Answers are plain numbers, in ng·h/mL.

Fill in the blank: the reported AUC(0-t) of c1cc([C@H]2CC[C@]3(CC2)OO[C@]2(O3)C3CC4CC(C3)CC2C4)ccc1OCCN1CCOCC1 [OZ439] is ____.
5430

----------
# Method notes: Plasma pharmacokinetics of OZ439, summary over single and multiple dose parts
# Assay type: in vivo, human
# Conditions: human, plasma, oral
Experimental endpoint: Tmax

Which Tmax reading was recorded for the molecule c1cc([C@H]2CC[C@]3(CC2)OO[C@]2(O3)C3CC4CC(C3)CC2C4)ccc1OCCN1CCOCC1 ?
~3 h

----------
# Method notes: Single rising dose plasma PK, OZ439 capsule, fasted healthy subjects
# Assay type: in vivo, human
# Conditions: both, human, plasma, oral, 100 mg
Experimental endpoint: Cmax (ng/mL)
Answers are plain numbers, in ng/mL.

Entry c1cc([C@H]2CC[C@]3(CC2)OO[C@]2(O3)C3CC4CC(C3)CC2C4)ccc1OCCN1CCOCC1 : reported Cmax = ?
34.2
